Data provenance: ChEMBL document CHEMBL3433997

- SYSTEM: Solute carrier family 2, facilitated glucose transporter member 1 (Homo sapiens) (UniProt P11166)
- Sequence (P11166 whole entry): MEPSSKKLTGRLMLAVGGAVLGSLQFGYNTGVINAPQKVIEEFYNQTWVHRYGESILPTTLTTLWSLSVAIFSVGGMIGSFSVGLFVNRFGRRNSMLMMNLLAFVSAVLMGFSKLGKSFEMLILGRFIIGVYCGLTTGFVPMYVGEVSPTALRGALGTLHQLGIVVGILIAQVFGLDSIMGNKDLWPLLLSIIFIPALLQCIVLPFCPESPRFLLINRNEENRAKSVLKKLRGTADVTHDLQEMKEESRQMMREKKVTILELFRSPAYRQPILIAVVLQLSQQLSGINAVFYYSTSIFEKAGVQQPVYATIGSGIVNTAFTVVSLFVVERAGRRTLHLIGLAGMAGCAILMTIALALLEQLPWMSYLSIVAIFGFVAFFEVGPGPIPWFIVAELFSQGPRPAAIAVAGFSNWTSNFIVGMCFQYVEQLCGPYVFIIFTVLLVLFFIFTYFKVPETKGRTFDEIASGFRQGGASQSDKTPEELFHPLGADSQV
- MEASUREMENT DESCRIPTION: ST_JUDE_LEISH: Cytotoxicity at 2uM final concentration against transgenic Leishmania Mexicana promastigotes LmGLUT1 that are glucose transport deficient and complemented with the human glucose transporter GLUT1. Activity is measured by DNA content using SYBR green in vitro
- Format: functional

COMPOUND: Cc1csc(-c2ncc(OC[C@@H](N)Cc3ccccc3)cc2-c2ccc3[nH]nc(C)c3c2)c1
inhibition, %: 2.54
--
COMPOUND: CC(Cc1ccc(OCCN2CCN(c3ccc(Cl)cc3)CC2)cc1)NCC(O)c1cccc(C(F)(F)F)c1 (stereo not given)
inhibition, %: -2.36
--
COMPOUND: Fc1ccc2[nH]c(-c3ccc(-c4ccc(CNCc5ccccc5)cc4)cc3)nc2c1
inhibition, %: 12.6
--
COMPOUND: CCC/C=C/c1c(CNCCCNc2cc(=O)c3ccccc3[nH]2)sc(CC)c1Br
inhibition, %: 0.5
--
COMPOUND: c1ccc(COc2ccnc(NCCCOc3cccc(CN4CCCCC4)c3)c2)cc1
inhibition, %: 1.52
--
COMPOUND: CSc1ccc(CN2CCC(NC(=O)c3ccc(-c4cccc(C(F)(F)F)c4)s3)CC2)cc1
inhibition, %: 3.18
--
COMPOUND: Cc1cc(N(C)C)nc(Nc2ccc(NC(=O)c3ccccc3F)cc2)n1
inhibition, %: 1.36
--
COMPOUND: Cc1ccc(Cn2nc(N3CCNCC3)ccc2=O)cc1NC(=O)Nc1ccc(-c2ccccc2)cc1
inhibition, %: 1.5
--
COMPOUND: NC(=O)c1cccc(C(=O)Nc2cccc(-c3cccc(-c4nc5ccccc5[nH]4)c3)c2)c1
inhibition, %: 5.87
--
COMPOUND: CCN(CC)Cc1cc(Nc2ccnc3cc(Cl)ccc23)ccc1O
inhibition, %: -1.88

---

- SYSTEM: Glucose transporter (Leishmania mexicana)
- MEASUREMENT DESCRIPTION: ST_JUDE_LEISH: Cytotoxicity at 2uM final concentration against transgenic Leishmania Mexicana promastigotes LmGT2 that are glucose transport deficient and complemented with the L. Mexicana glucose transporter 2. Activity is measured by DNA content using SYBR green in vitro
- Assay type: functional
ENDPOINT: inhibition (%)

COMPOUND: CCc1ccc(NC(=O)c2ccc(CN3CCCN(Cc4cccs4)CC3)cc2)cc1
SYSTEM: Glucose transporter (Leishmania mexicana)
EXPERIMENTAL VALUE: 14.9
//
COMPOUND: COc1ccc(CC2(c3ccc(F)cc3)N=C(N)N(CCCc3ccc(F)c(F)c3)C2=O)cc1 (stereo unspecified)
SYSTEM: Glucose transporter (Leishmania mexicana)
EXPERIMENTAL VALUE: 3.88
//
COMPOUND: O=C(NC(CCCN1CCC(c2ccccc2)CC1)c1ccc(Cl)c(Cl)c1)c1cc(C(F)(F)F)cc(C(F)(F)F)c1 (stereo unspecified)
SYSTEM: Glucose transporter (Leishmania mexicana)
EXPERIMENTAL VALUE: 1.89
//
COMPOUND: COc1ccc2ncc(F)c([C@H](O)CN3CCC(NCc4cc5c(cn4)OCCO5)CC3)c2c1
SYSTEM: Glucose transporter (Leishmania mexicana)
EXPERIMENTAL VALUE: 2.51
//
COMPOUND: O=C(Nc1cccc(CN2CCCN(Cc3ccsc3)CC2)c1)c1ccc(-c2ccccc2)cc1
SYSTEM: Glucose transporter (Leishmania mexicana)
EXPERIMENTAL VALUE: 1.6
//
COMPOUND: O=C(Cn1c(CCc2cccc(F)c2F)nc(=O)c2ccccc21)N(CCCN1CCCC1)Cc1ccc(-c2ccc(C(F)(F)F)cc2)cc1
SYSTEM: Glucose transporter (Leishmania mexicana)
EXPERIMENTAL VALUE: 9.22
//
COMPOUND: CC(C)CCN(Cc1cncn1Cc1cccc(C(F)(F)F)c1)C(=O)c1ccccc1C#N
SYSTEM: Glucose transporter (Leishmania mexicana)
EXPERIMENTAL VALUE: 0.86
//
COMPOUND: Cc1c(CCc2cccc(F)c2F)[nH]c2ccccc2c1=O
SYSTEM: Glucose transporter (Leishmania mexicana)
EXPERIMENTAL VALUE: 0.83
//
COMPOUND: COc1ccccc1CCNc1nc(C)cc(NCCC(=O)NCCOc2ccccc2)n1
SYSTEM: Glucose transporter (Leishmania mexicana)
EXPERIMENTAL VALUE: 2.01
//
COMPOUND: CS(=O)(=O)c1ccccc1CNC(=O)c1ccc(-c2cccc(-c3nc4cc(C(F)(F)F)ccc4[nH]3)c2)cc1
SYSTEM: Glucose transporter (Leishmania mexicana)
EXPERIMENTAL VALUE: 2.22
//
COMPOUND: CCCc1cc(NC2CCN(C)CC2)nc(Nc2ccc(C)cc2)n1
SYSTEM: Glucose transporter (Leishmania mexicana)
EXPERIMENTAL VALUE: 2.46
//
COMPOUND: Fc1ccc2[nH]c(-c3cccc(-c4ccc(CN5CCCCC5)cc4)c3)nc2c1
SYSTEM: Glucose transporter (Leishmania mexicana)
EXPERIMENTAL VALUE: 2.43
//
COMPOUND: COCCNCc1nc(-c2ccc3c(Nc4ccc(F)c(O)c4)ccnc3c2)cs1
SYSTEM: Glucose transporter (Leishmania mexicana)
EXPERIMENTAL VALUE: 0.42
//
COMPOUND: CC(C)Sc1nc2c(c(=O)n1Cc1ccco1)C1(CCCC1)Cc1ccccc1-2
SYSTEM: Glucose transporter (Leishmania mexicana)
EXPERIMENTAL VALUE: 6.08
//
COMPOUND: COc1cccc(CNC[C@@H](O)[C@H](Cc2ccccc2)NC(=O)c2cc3c4c(c2)c(C(C)C)cn4CCS(=O)(=O)N3C)c1
SYSTEM: Glucose transporter (Leishmania mexicana)
EXPERIMENTAL VALUE: 8.04
//
COMPOUND: COCCN(C)CCCOc1cc2c(cc1OC)ncn2-c1cc(OCc2ccccc2C(F)(F)F)c(C(N)=O)s1
SYSTEM: Glucose transporter (Leishmania mexicana)
EXPERIMENTAL VALUE: 1.49
//
COMPOUND: CSc1ccc(CN2CCC(CNC(=O)c3cc(-c4ccccc4F)cs3)C2)cc1 (stereo unspecified)
SYSTEM: Glucose transporter (Leishmania mexicana)
EXPERIMENTAL VALUE: -3.72
//
COMPOUND: COc1ccc(C=CC(=O)Nc2ccc(N3CCCC3)cc2)cc1
SYSTEM: Glucose transporter (Leishmania mexicana)
EXPERIMENTAL VALUE: -1
//
COMPOUND: Cc1cccc2nc(-c3ccc(-c4cccc(NC(=O)C(=O)c5cccn5C)c4)cc3)[nH]c12
SYSTEM: Glucose transporter (Leishmania mexicana)
EXPERIMENTAL VALUE: 2.29
//
COMPOUND: COc1cccc(CNC[C@@H](O)[C@H](Cc2ccccc2)NC(=O)c2cc(C3CCCC3)cc(N3CCCCS3(=O)=O)c2)c1
SYSTEM: Glucose transporter (Leishmania mexicana)
EXPERIMENTAL VALUE: 0.92
//
COMPOUND: COc1cc(OC)cc(-c2nn(-c3ccc([N+](=O)[O-])cc3C#N)c(=S)n2Cc2ccco2)c1
SYSTEM: Glucose transporter (Leishmania mexicana)
EXPERIMENTAL VALUE: 4.15
//
COMPOUND: CN(C)C(=O)c1ccc(CN(Cc2ccc3c(c2)OCCO3)Cc2ccc3c(c2)OCO3)cc1
SYSTEM: Glucose transporter (Leishmania mexicana)
EXPERIMENTAL VALUE: 3.97
//
COMPOUND: CCCCCC(C)N/C(=N/c1ccccc1Br)Nc1ccc(C#N)cc1O (stereo unspecified)
SYSTEM: Glucose transporter (Leishmania mexicana)
EXPERIMENTAL VALUE: 0.92
//
COMPOUND: COc1ccccc1C1CC(c2ccc(C)cc2)=NN1C(=O)c1ccccc1 (stereo unspecified)
SYSTEM: Glucose transporter (Leishmania mexicana)
EXPERIMENTAL VALUE: 5.66
//
COMPOUND: CN(Cc1cccc(F)c1)C1CCN(c2cc(NC(=O)c3ccc(F)cc3)ccn2)C1 (stereo unspecified)
SYSTEM: Glucose transporter (Leishmania mexicana)
EXPERIMENTAL VALUE: 1.63
//
COMPOUND: Oc1ccc(-c2nc(-c3ccc4oc5ccc(-c6[nH]c(-c7ccc(O)cc7)nc6-c6ccccc6)cc5c4c3)c(-c3ccccc3)[nH]2)cc1
SYSTEM: Glucose transporter (Leishmania mexicana)
EXPERIMENTAL VALUE: -0.47
//
COMPOUND: CN(C)CCOc1cccc(NC(=O)Nc2ccc(-c3ccccc3)cc2)c1
SYSTEM: Glucose transporter (Leishmania mexicana)
EXPERIMENTAL VALUE: 1.53
//
COMPOUND: CCOc1cc(C(=O)NCCc2ccc(Cl)c(Cl)c2)ccc1-c1nc2cc(Cl)ccc2[nH]1
SYSTEM: Glucose transporter (Leishmania mexicana)
EXPERIMENTAL VALUE: 1.26
//
COMPOUND: CC1CCN(CC[C@H]2CCCN2S(=O)(=O)c2cccc(NC(=O)Nc3ccc(C(F)(F)F)cc3)c2)CC1
SYSTEM: Glucose transporter (Leishmania mexicana)
EXPERIMENTAL VALUE: -0.02
//
COMPOUND: CC(=O)Nc1ccc(C(=O)Nc2cccc(-c3ccc(-c4nc5cc(F)ccc5[nH]4)cc3)c2)cn1
SYSTEM: Glucose transporter (Leishmania mexicana)
EXPERIMENTAL VALUE: 0.38
//
COMPOUND: CCOC(=O)c1ccc(NC(=O)N[C@H]2CCN(CCCCCNC(=O)/C=C/c3ccc(Cl)c(Cl)c3)C2)cc1
SYSTEM: Glucose transporter (Leishmania mexicana)
EXPERIMENTAL VALUE: 5.84
//
COMPOUND: CC(=O)N(Cc1ccc(CC(C)NCCc2cccc(Cl)c2)cc1)Cc1ccc(CC(C)NCCc2cccc(Cl)c2)cc1 (stereo unspecified)
SYSTEM: Glucose transporter (Leishmania mexicana)
EXPERIMENTAL VALUE: 99.7
//
COMPOUND: COc1ccc(CCNC(=O)c2cnc3c(c2)nc(-c2c[nH]c(-c4ccccc4)n2)n3CCc2c[nH]cn2)cc1
SYSTEM: Glucose transporter (Leishmania mexicana)
EXPERIMENTAL VALUE: 2.62
//
COMPOUND: COC(=O)c1cccc(N2CCN(CCCNC(=O)/C(=C/C=C/c3cc4cc(Cl)c(Cl)cc4[nH]3)OC)CC2)c1
SYSTEM: Glucose transporter (Leishmania mexicana)
EXPERIMENTAL VALUE: -1.57
//
COMPOUND: Cc1cc(NC(=O)NCCN2CCC(NS(=O)(=O)c3ccc(C(F)(F)F)cc3)C2)c2ccccc2n1 (stereo unspecified)
SYSTEM: Glucose transporter (Leishmania mexicana)
EXPERIMENTAL VALUE: 7.4
//
COMPOUND: COc1ccccc1C1CCN(C2CCC(NC(=O)c3ccc4[nH]c(-c5ccc(C)cc5)nc4c3)CC2)CC1 (stereo unspecified)
SYSTEM: Glucose transporter (Leishmania mexicana)
EXPERIMENTAL VALUE: 2.37
